test system: MS2 coat protein; assay: apparent KD of MS2 coat protein; higher = weaker reporter binding; settings: Eterna round: R107; input ligand: theophylline 2 mM
// reported apparent KD of MS2 coat protein for each item listed
Include the unit right after the number.

The examples below pair each entry with its known result.
>>> meas_value("CUUGUUUGUGGAAGGAGCGCGAUUACAUAACAUGAGGAUCACCCAUGUAAGAAAUUAUUCAUGCAGGUAGGUCGCCAUUGGUGGG [Same State Arginine B GF8]")
"23.7 nM"
>>> meas_value("UGUCGAAACUGAAGGAGCGAGAUGACAACAUUGGGUCUAACAUGAGGAUCACCCAUGUAAUCUCAGGUAGGUCGCAGUGACAAAA [Exclusion Arginine B GF 15]")
"133 nM"

Now look at this entry.
Problem: Dear colleague, I am looking for the recorded apparent KD of MS2 coat protein of the following sequence: AGCCGUACGUACGGAAACGUACGUACGGCACGAGGACCGGUACGGCCGCCACUCGCCCACAUGAGGAUCACCCAUGUAGUGGGUG [The One Line]
Solution: 53.4 nM

* * *

system: MS2 coat protein; experiment: apparent KD of MS2 coat protein; designed switch direction (-1 OFF switch, 1 ON switch): 1; higher = weaker reporter binding; settings: Eterna round: R95; input ligand: FMN 200 uM
Everything with apparent KD of MS2 coat protein lower than 40 nM is 0 (no); everything else, including exactly 40 nM, is 1 (yes).

>>> class_name("UCUUGGUUUUUGCUCGUUUUUUGUGUUGAACAUGAGGAUCACCCAUGUAUUGUACAAUCCAGUUUGAUAAUGGUCCG [JR_SHM208A_Sub045] (puzzle: Sensor for hsa-mir-208a)")
"1 (yes)"
>>> class_name("UACAAUCUAUCUGAGGAUAUCAUGUAUUAAACAUGAGGAUCACCCAUGUGCAGGAAAACUGCAUAUGAGAAGGCAGAUAGAUUGU [salish99_ss2_r3_064] (puzzle: Same State 2)")
"1 (yes)"

Problem: Say whether AUUAAACAUGAGGAUCACCCAUGUCAACAAAGUCGAGGAUAUGGGCAAAUAAAAUAAGAACCAGAAGGCGAAUAAU [salish99_ss1_r3_048] (puzzle: Same State 1) shows apparent KD of MS2 coat protein of 40 nM or more.
Solution: 0 (no)

Problem: Exam item: decide whether the reported apparent KD of MS2 coat protein for ACAAGCUUUUCUGCAUUGAAAGGUUGGUUACAUGAGGAUCACCCAUGUUUUUAUGAAAAUAAUGCUCCUCGUCUUAU [JR_SHM208A_Sub093] (puzzle: Sensor for hsa-mir-208a) is at least 40 nM.
Solution: 1 (yes)

* * *

test system: MS2 coat protein; experiment: apparent KD of MS2 coat protein; designed switch direction (-1 OFF switch, 1 ON switch): 1; higher = weaker reporter binding; details: input ligand: FMN 200 uM
metric: apparent KD of MS2 coat protein (nM)
Kindly provide the numeric value in nM only, without the unit symbol.

See these solved cases before continuing.
>>> meas_value("UUAAUGAUGUAAGGAUAUACAUGAGGAAAUCUCGUAGAAGGUACAGGACAUGAGGAUCACCCAUGUGUCGCUCAGAAGAGCGUA [Mat - Same State NG 1 - JL mod - D18] (Eterna round: R96, puzzle: Same State NG 1)")
86.3
>>> meas_value("ACAUGAGACGGAGGAUAUUUUGUACCUACAUGUGACAUGAGGAUCACCCAUGUGGUAAGUAUGAGAAAGAAGGCCGAGAUAUGU [Equivalence 19 - Jieux - Same State NG 2] (Eterna round: R96, puzzle: Same State NG 2)")
14.2
>>> meas_value("ACAUGAGAAUGAGGAUAUGUUGUACCUACAUGUGACAUGAGGAUCACCCAUGUGGUAAGUAUGAUACAGAAGGCAUAGAUAUGU [Equivalance 62 - Jieux - Same State NG 2] (Eterna round: R96, puzzle: Same State NG 2)")
18.9

Problem: Given CUGCGUAACACAGGAUAUACCUCCGCAAGGAACGUAGAAGGGUGAGUAGCAGACAUGAGGAUCACCCAUGUAAAGGCCAAGGCC [Enqudiso] (Eterna round: R96, puzzle: Same State NG 1) , state its recorded apparent KD of MS2 coat protein.
Solution: 48.4

Problem: Look at this sequence and give its reported apparent KD of MS2 coat protein. GGAUGAUAGACAGGAUAUUGAUUGUAAUUAGGUCAAGAAGGGUCUUUGAUUUAAACGACCAGUUACAUGAGGAUCACCCAUGUU [JR_SSNG1_Sub028] (Eterna round: R96, puzzle: Same State NG 1)
Solution: 82.5

Problem: Param item = AGCUAUUAAUCAGGAUAUAGUGACAUGAGGAUCACCCAUGUAUUGAUGAUUAAAUGUGGUCACCACUAGAAGGGAUUACUAACA [SameState NG2 #48] (Eterna round: R96, puzzle: Same State NG 2) ; retrieve measured apparent KD of MS2 coat protein.
Solution: 23.2

Problem: Which apparent KD of MS2 coat protein value is on record for AUACUCAUGUAAGGAUAUGCAGCCGUUUCGGCUGCAGAAGGUACUAUAAUACAUGAGGAUCACCCAUGUCUCUAUUAUUUAGUU [JL SSNG1 1.46] (Eterna round: R96, puzzle: Same State NG 1) ?
Solution: 72.1

Problem: Returns the measured apparent KD of MS2 coat protein for the input sequence. Input: CCGAUUUAUGGAGGAUAUGGAGCCUUAUUGGCUCCAGAAGGUCAAUACAUGAGGAUCACCCAUGUGUCGGCGGUCAAUAGACCG [Eli NG1ss - 72] (Eterna round: R96, puzzle: Same State NG 1)
Solution: 61.7

Problem: Which measured apparent KD of MS2 coat protein value corresponds to UUUAGAUCGCGAGGAUAUCGCGAGGAUCACCCGUGAGAAGGCGCAGAGCCGAGGAUCACCCGGCUGAUCCUGAGAAGGAGGUCA (Eterna round: R96, puzzle: Same State NG 1) ?
Solution: 91.7
